System: human Pgp
runDescription: Apparent permeability across MDCK cells transfected with human Pgp
Assay type: ADME, cell-based, Canis lupus familiaris
conditionSummary: dog, MDCK-MDR1

{"compound": "CC(C)CNC(=O)[C@@H](C[C@H](O)[C@@H]1COCc2cccc(c2)C(c2ccccc2)NC(=O)c2cc(cc(N(C)S(C)(=O)=O)c2)C(=O)N1)C(C)C (stereo partly specified)", "Papp / nm/s": 1}

###

testedSystem: Renin (Homo sapiens)
runDescription: Inhibition of human plasma renin
Type: cell-free
conditionSummary: read-out: IC50
pIC50: −log10 of the molar value.
measure: pIC50

{"entrySmiles": "CC(C)[C@H](C[C@H](O)[C@H](COCc1ccccc1)NC(=O)c1cc(C(=O)N[C@H](C)c2ccccc2)cc(N(C)S(C)(=O)=O)c1)C(=O)N[C@H](C(=O)NCc1ccccc1)C(C)C", "observedResult": 7.42}

###

Below: a set of entries, each annotated with reported Ki.
testedSystem: UniProtKB P07339
Sequence (P07339 65-162 limits assumed): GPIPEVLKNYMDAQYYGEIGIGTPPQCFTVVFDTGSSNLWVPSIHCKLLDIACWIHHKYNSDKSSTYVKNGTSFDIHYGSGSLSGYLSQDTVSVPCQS
Sequence (P07339 169-412 limits assumed): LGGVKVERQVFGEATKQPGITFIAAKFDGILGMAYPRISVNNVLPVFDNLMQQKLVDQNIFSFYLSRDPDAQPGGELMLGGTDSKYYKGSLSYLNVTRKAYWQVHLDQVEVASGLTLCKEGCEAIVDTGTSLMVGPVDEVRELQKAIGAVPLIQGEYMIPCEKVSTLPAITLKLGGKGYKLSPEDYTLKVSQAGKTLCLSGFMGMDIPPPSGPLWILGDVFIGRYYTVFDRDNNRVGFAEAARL

{"compound": "COCCOC1CCCc2cc(cc(N(C)S(C)(=O)=O)c2)C(=O)N[C@H]([C@@H](O)C[C@H](C(=O)NCC(C)C)C(C)C)COCc2cccc1c2 (stereo partly drawn)", "testedSystem": "UniProtKB P07339", "unitString": "nM", "resultComparator": ">", "Ki": 5000}
{"compound": "COCCCC1NC(=O)c2cc(cc(N(C)S(C)(=O)=O)c2)C(=O)N[C@H]([C@@H](O)C[C@H](C(=O)NCC(C)C)C(C)C)COCc2cccc1c2 (stereo partly drawn)", "testedSystem": "UniProtKB P07339", "unitString": "nM", "resultComparator": "=", "Ki": 460}
{"compound": "CNC(=O)[C@@H](C[C@H](O)[C@@H]1COCc2cccc(c2)C(c2ccccc2)NC(=O)c2cc(cc(N(C)S(C)(=O)=O)c2)C(=O)N1)C(C)C (stereo partly drawn)", "testedSystem": "UniProtKB P07339", "unitString": "nM", "resultComparator": "=", "Ki": 1700}

###

In this section we review reported pKi values for a set of compounds.
Target sequence: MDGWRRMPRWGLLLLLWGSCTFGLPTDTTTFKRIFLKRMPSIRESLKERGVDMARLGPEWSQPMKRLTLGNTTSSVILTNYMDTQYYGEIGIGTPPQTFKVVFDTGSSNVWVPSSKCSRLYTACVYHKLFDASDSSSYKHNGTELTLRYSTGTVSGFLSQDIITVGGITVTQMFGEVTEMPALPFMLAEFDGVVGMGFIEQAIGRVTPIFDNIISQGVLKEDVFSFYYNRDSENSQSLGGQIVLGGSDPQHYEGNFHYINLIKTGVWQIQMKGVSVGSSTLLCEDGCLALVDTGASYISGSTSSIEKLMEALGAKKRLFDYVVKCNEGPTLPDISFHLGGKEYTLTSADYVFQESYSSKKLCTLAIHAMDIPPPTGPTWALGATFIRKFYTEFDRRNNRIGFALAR
pKi: −log10 of the molar value.

{"compound": "COCCOC1CCc2cc(cc(N(C)S(C)(=O)=O)c2)C(=O)N[C@H]([C@@H](O)C[C@H](C(=O)NCC(C)C)C(C)C)COCc2cccc1c2 (some centres undefined)", "resultComparator": "<", "pKi": 5.30}
{"compound": "CNC(=O)[C@@H](C[C@H](O)[C@@H]1COCc2cccc(c2)C(c2ccccc2)NC(=O)c2cc(cc(N(C)S(C)(=O)=O)c2)C(=O)N1)C(C)C (some centres undefined)", "resultComparator": "=", "pKi": 6.47}
{"compound": "COCCCC1NC(=O)c2cc(cc(N(C)S(C)(=O)=O)c2)C(=O)N[C@H]([C@@H](O)C[C@H](C(=O)NCC(C)C)C(C)C)COCc2cccc1c2 (some centres undefined)", "resultComparator": "=", "pKi": 6.35}
{"compound": "COc1ccc(C2NC(=O)c3cc(cc(N(C)S(C)(=O)=O)c3)C(=O)N[C@H]([C@@H](O)C[C@H](C(=O)NCC(C)C)C(C)C)COCc3cccc2c3)cc1 (some centres undefined)", "resultComparator": "=", "pKi": 6.89}
